target: Bacterial 70S ribosome (Bacteria) (UniProt P0A7V0+P60723+P0AG67+P0A7R5+P0A7R9+P0A7S3+P0A7S9+P0AG59+P0ADZ4+P0A7T3+P0AG63+P0A7T7+P0A7U3+P0A7U7+P68679+P0A7V3+P0A7V8+P0A7W1+P02358+P02359+P0A7W7+P0A7X3+P0A7J3+P0A7J7+P0AA10+P0ADY3+P02413+P0ADY7+P0AG44+P0C018+P0A7K6+P0A7L0+P0A7L3+P0AG48+P61175+P0ADZ0+P60624+P68919+P0A7L8+P0A7M2+P0A7M6+P60422+P0AG51+P0A7N1+P0A7M9+P0A7N4+P0A7N9+P0A7P5+P0A7Q1+Q2EEQ2+P0A7Q6+P60438+P62399+P0AG55+P0A7K2); test: Activity of Escherichia coli ribosomal peptidyl transferase using Ac[14C]phe-tRNA as donor substrate assessed as [14C]polyphenylalanine formation after 40 mins by scintillation counting analysis in presence of poly(U) relative to puromycin
measured endpoint: Efficacy (%)

In the examples that follow, each entry is paired with its recorded Efficacy.
CCCCCCSC[C@H](N)C(=O)N[C@H]1[C@@H](O)[C@H](n2cnc3c(N(C)C)ncnc32)O[C@@H]1CO
67.5
CCCCCCCCSC[C@H](N)C(=O)N[C@H]1[C@@H](O)[C@H](n2cnc3c(N(C)C)ncnc32)O[C@@H]1CO
45.6

(a) CCCCSC[C@H](N)C(=O)N[C@H]1[C@@H](O)[C@H](n2cnc3c(N(C)C)ncnc32)O[C@@H]1CO
(b) CN(C)c1ncnc2c1ncn2[C@@H]1O[C@H](CO)[C@@H](NC(=O)[C@@H](N)CSCc2ccccc2)[C@H]1O
(c) CN(C)c1ncnc2c1ncn2[C@@H]1O[C@H](CO)[C@@H](NC(=O)[C@@H](N)CSCCCCCCO)[C@H]1O
(d) CCCCCSC[C@H](N)C(=O)N[C@H]1[C@@H](O)[C@H](n2cnc3c(N(C)C)ncnc32)O[C@@H]1CO
Challenge: Put the compounds in ascending order of Efficacy. I would appreciate it if you listed the labels in the requested order.
Response given: b, a, d, c
(b: 17.4%, a: 36.2%, d: 54.3%, c: 95.6%)
